target: T1, human plasma Kallikrein (human, UniProt P03952 20-638); assay: enzyme inhibition
T1 construct: also called hPK; human PK
T1 sequence (P03952 20-638 limits assumed): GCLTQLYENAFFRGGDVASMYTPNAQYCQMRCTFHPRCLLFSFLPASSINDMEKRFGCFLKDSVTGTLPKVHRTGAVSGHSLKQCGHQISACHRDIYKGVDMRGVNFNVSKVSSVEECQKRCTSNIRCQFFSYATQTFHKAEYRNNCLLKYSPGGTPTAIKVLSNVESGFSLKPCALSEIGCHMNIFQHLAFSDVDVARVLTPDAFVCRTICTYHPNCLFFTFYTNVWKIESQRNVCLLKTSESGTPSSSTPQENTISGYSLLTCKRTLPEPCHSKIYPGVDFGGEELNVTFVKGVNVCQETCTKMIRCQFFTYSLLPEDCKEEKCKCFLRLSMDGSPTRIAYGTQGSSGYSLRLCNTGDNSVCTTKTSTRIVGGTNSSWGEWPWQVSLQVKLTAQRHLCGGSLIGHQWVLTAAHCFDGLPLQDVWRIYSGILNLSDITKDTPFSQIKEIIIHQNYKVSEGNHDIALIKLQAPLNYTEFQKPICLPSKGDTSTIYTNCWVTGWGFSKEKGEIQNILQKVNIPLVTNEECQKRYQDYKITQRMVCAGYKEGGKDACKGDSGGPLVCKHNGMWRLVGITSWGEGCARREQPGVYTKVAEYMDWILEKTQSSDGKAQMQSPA
Numbered stars: 1 amine (or outer) side, 2 acyl side, 3 side chain; on linkers, the order of the positions; unused ones are H or OH. Bridge positions count the residues as written; N and C are the ends. TBMB = c1c(C[*:1])cc(C[*:3])cc1C[*:2]
parameter: Ki
Provide the measurement as a number trailed by its unit.

Query :: Tell me Ki reported for Ac-CWARSPCLHQDLC-NH2 (linker 1-7-13 via TBMB; SMILES CC(=O)N[C@H]1CSCc2cc3cc(c2)CSC[C@H](NC(=O)[C@@H]2CCCN2C(=O)[C@H](CO)NC(=O)[C@H](CCCNC(=N)N)NC(=O)[C@H](C)NC(=O)[C@H](Cc2c[nH]c4ccccc24)NC1=O)C(=O)N[C@@H](CC(C)C)C(=O)N[C@@H](Cc1c[nH]cn1)C(=O)N[C@@H](CCC(N)=O)C(=O)N[C@@H](CC(=O)O)C(=O)N[C@@H](CC(C)C)C(=O)N[C@H](C(N)=O)CSC3) [Ac-(06-34-18) Scram4]
Result :: 67.5 µM
